The reported numbers originate from the Biogen ADME set (Fang et al. 2023).

Please provide measured intrinsic clearance, human liver microsomes for the entries that follow.

Given `Cc1c(C(=O)Nc2cnccn2)cccc1-c1ccccn1` , state its recorded intrinsic clearance, human liver microsomes.
≤ 4.74 mL/min/kg

Using the record for `NC(=O)Cn1cc(-c2ccc(F)cc2)cn1` , report its intrinsic clearance, human liver microsomes.
≤ 4.74 mL/min/kg

Requested read-out: intrinsic clearance, human liver microsomes. Entry: `CCOc1cc(CN2CCc3c(N)nc(N4CCCC4)nc3C2)ccc1OC`
26.6 mL/min/kg

What intrinsic clearance, human liver microsomes value was documented for this molecule, `CCn1nccc1-c1cc(CC2CCNCC2)ncn1` ?
≤ 4.74 mL/min/kg

What does the data say about its intrinsic clearance, human liver microsomes? Entry: `CCn1cc(C2CCN(Cc3ccc(C#N)cc3)CC2)cn1`
12.2 mL/min/kg

// intrinsic clearance, human liver microsomes lookup, key: `COc1cccc(-n2nc(C(=O)O)cc2-c2ccc(C3CCCCC3)c(Cl)c2)c1`
7.78 mL/min/kg

Item `O=C(NCCN1CCC(c2ccccc2)CC1)c1ccc2ncsc2c1` has what recorded intrinsic clearance, human liver microsomes?
15.2 mL/min/kg

Give its intrinsic clearance, human liver microsomes value. Item: `CN(Cc1ccccn1)c1nc2ccccc2o1`
15 mL/min/kg

Quick one: intrinsic clearance, human liver microsomes of `CNC(=O)N1CCc2nc3ccc(Cl)cn3c(=O)c2C1` ?
≤ 4.74 mL/min/kg

Recorded intrinsic clearance, human liver microsomes for `CCOC(=O)c1c(C)[nH]c(CN(Cc2ccccc2)C(=O)c2ccccc2Cl)c1C` , please?
311 mL/min/kg

Can you share its intrinsic clearance, human liver microsomes? I mean this molecule: `Cc1cc(NCc2ccnc(N3CCCC3)c2)c2ccccc2n1`
23.8 mL/min/kg

Which measured intrinsic clearance, human liver microsomes value corresponds to `Cc1ccc(C(=O)Nc2cccc(C(=O)N(C)C)c2)cn1` ?
≤ 4.74 mL/min/kg

Given `Cc1ncn(Cc2noc(-c3ccccc3O)n2)c1C` , state its recorded intrinsic clearance, human liver microsomes.
19.9 mL/min/kg

Requested field: intrinsic clearance, human liver microsomes. Item: `CC(C)CN1CC[C@H](c2nc3ccc(C#N)cc3[nH]2)C1`
6.69 mL/min/kg

Dear colleague, I am looking for the recorded intrinsic clearance, human liver microsomes of the following molecule: `COc1ccc(C(=O)Nc2ccc3oc(C)nc3c2)c(OC)c1`
25.3 mL/min/kg

What value of intrinsic clearance, human liver microsomes has been recorded for this entry: `CCc1cc(-c2ccc(OC)c3ncccc23)nc(N2CCOCC2)n1`
28.6 mL/min/kg

Give its intrinsic clearance, human liver microsomes value. Item: `CCCN1CCCN(c2ncccc2C#N)CC1`
29.4 mL/min/kg

So what does the record say about intrinsic clearance, human liver microsomes for `Cc1ccc(F)cc1S(=O)(=O)Nc1ccc(C(=O)N2CCCC2)cc1` ?
127 mL/min/kg

Dear colleague, I am looking for the recorded intrinsic clearance, human liver microsomes of the following molecule: `Cc1cccn(Cc2cccnc2)c1=O`
≤ 4.74 mL/min/kg

Reported intrinsic clearance, human liver microsomes, molecule `CCCCCCNc1ncnc2[nH]ccc12` : ____
70.9 mL/min/kg

# lookup: intrinsic clearance, human liver microsomes of `c1ccc(-c2noc(NCC3CCC3)n2)cc1`
119 mL/min/kg

Need intrinsic clearance, human liver microsomes, item `CC(C)c1cnn2c(NCc3ccccc3)cc(NCCCCCCN)nc12`
7.76 mL/min/kg

What does the data say about its intrinsic clearance, human liver microsomes? Entry: CCc1nnc(Nc2cc(C)nc(C3CN(C(=O)C(C)C)CCO3)c2)s1 (stereo not given)
13.7 mL/min/kg

Would you kindly share the measured intrinsic clearance, human liver microsomes for `CCCn1cnnc1Cn1ccnc1-c1ccc2occc2c1` ?
≤ 4.74 mL/min/kg

// query intrinsic clearance, human liver microsomes value for entry CCCS(=O)(=O)N1CCCC(C(=O)N2CCc3ccccc3C2)C1 (stereo not given)
62 mL/min/kg

---

Please go through the items and note down their intrinsic clearance, human liver microsomes.
Answer format: numeric, mL/min/kg implied, no suffix.

Fill in: intrinsic clearance, human liver microsomes of `COc1ncccc1NC(=O)c1cccc(C)n1` is ___
150

What value of intrinsic clearance, human liver microsomes has been reported for the following molecule? `CCCn1ncc(CN2CCC(c3ncc[nH]3)CC2)c1C`
7.33

Quick check: intrinsic clearance, human liver microsomes of `Cc1nc(-c2cc(C)on2)n(CCc2ccccc2)n1` ?
92.1

For the molecule shown here, `CCCC(=O)Nc1ccc(C)c2ncccc12` , give the reported intrinsic clearance, human liver microsomes.
8.73

---

parameter: intrinsic clearance, rat liver microsomes (mL/min/kg)
Provide the reading as a plain figure in mL/min/kg.

Value lookup for intrinsic clearance, rat liver microsomes; key = `Cc1n[nH]c(C)c1Cc1ccc(NCCC(C)C)cc1`
484

Please look up its intrinsic clearance, rat liver microsomes: `NC(=O)C1(Cc2ccc(-c3cccnc3)cc2)CCN(Cc2cccc(Cl)c2)CC1`
1360

Value lookup for intrinsic clearance, rat liver microsomes; key = `NC1(c2ccc(-c3nc4ccn5c(=O)[nH]nc5c4cc3-c3ccccc3)cc2)CCC1`
17.1

Quick one: intrinsic clearance, rat liver microsomes of `CNc1ccc(/C=C/c2ccc(OCCOCCOCCF)nc2)cc1` ?
564

GET /values?readout=intrinsic clearance, rat liver microsomes&item= `Cc1cccc(NC(=O)CN2C(=O)N(C)C3(CCCCC3)C2=O)c1C`
2640

Reported intrinsic clearance, rat liver microsomes, compound `Cc1ccc(-c2nc(CC(=O)NCCC(C)C)cs2)cc1` : ____
6110

// query intrinsic clearance, rat liver microsomes value for entry `CCOc1ccc2nc3c(cc2c1)CN(CCOC)C(=O)O3`
215

Report intrinsic clearance, rat liver microsomes for `CC1CCN(CCNC(=O)c2ccncc2)CC1` please.
490

Requested field: intrinsic clearance, rat liver microsomes. Item: `Cn1c(SCOCc2ccccc2)nnc1C1CC1`
271

Any idea what intrinsic clearance, rat liver microsomes was measured for `C#CCNC(=O)N(Cc1ccccc1F)C1CCOCC1` ?
35.5

What value of intrinsic clearance, rat liver microsomes has been recorded for this entry: `Cn1cnnc1-c1cccc(NS(=O)(=O)c2ccc3c(c2)OCCCO3)c1`
180

What measured intrinsic clearance, rat liver microsomes goes with `CC(/C=C/C(=O)NO)=C\[C@@H](C)C(=O)c1ccc(N(C)C)cc1` ?
152

Returns the measured intrinsic clearance, rat liver microsomes for the input compound. Input: `CC(C)NC(=O)Cn1nnnc1C(C)(C)C`
27.1

Bench note: what intrinsic clearance, rat liver microsomes did `Cc1cc(C)c2ccc(C(=O)N3CCN(c4ncc[nH]c4=O)CC3)cc2n1` show?
53.4

Reported intrinsic clearance, rat liver microsomes for `Cc1cccc(C)c1OCCn1nnnc1C` : what is it?
97.1

Name the reported intrinsic clearance, rat liver microsomes value associated with the compound `CCc1cnccc1C(=O)Nc1cnccn1`
17.2

Return reported intrinsic clearance, rat liver microsomes; argument: `O=C1CCC(=O)N1Cc1nc(C23CC4CC(CC(C4)C2)C3)cs1`
1400

Value lookup for intrinsic clearance, rat liver microsomes; key = `Cc1nc(N2CCNCC2)c2cnn(C)c2n1`
15.1

Fill blank: measured intrinsic clearance, rat liver microsomes of the compound `CCNC(=O)C1CN(c2nc(C3CC3)nc3c2CCC3)C1` is ____.
19.9

Fill in the blank: the reported intrinsic clearance, rat liver microsomes of `CCc1nc(C)cn2nc(-c3cc(=O)n4cc(C5CCN(C)CC5)cc(C)c4n3)cc12` is ____.
25.7

---

Consider the cut-off 500 mL/min/kg. If the recorded intrinsic clearance, rat liver microsomes is strictly smaller, the label is Criterion met; if not, the label is Criterion not met.

Report whether reported intrinsic clearance, rat liver microsomes is lower than 500 mL/min/kg (strictly) for `CCOCC(=O)N1CCC2(CCc3ccccc3O2)CC1`
Criterion not met

Confirm or reject: intrinsic clearance, rat liver microsomes of `c1ccc(-c2nsc(N3CCCN(c4nccs4)CC3)n2)cc1` lies strictly below 500 mL/min/kg
Criterion not met

For `O=C(CC(=O)N1CCCC1)N1CCCC1` , is the recorded intrinsic clearance, rat liver microsomes below the cut-off of 500 mL/min/kg?
Criterion met

Does `CC(C)N1CC[C@H](c2nnc(-c3cncn3C)o2)C1` have intrinsic clearance, rat liver microsomes strictly under 500 mL/min/kg?
Criterion met

For `Nc1nn(C(=O)Cc2ccc(F)cc2)c2cccc(F)c12` , is the recorded intrinsic clearance, rat liver microsomes below the cut-off of 500 mL/min/kg?
Criterion met

Given the entry `CCc1cnc(CNC(=O)N2CCC(n3cncn3)CC2)s1` , would its reported intrinsic clearance, rat liver microsomes be below 500 mL/min/kg?
Criterion met

Say whether its intrinsic clearance, rat liver microsomes is strictly beneath 500 mL/min/kg. Entry: `COc1ccnc(N2CC(O)(C3CC3)C2)n1`
Criterion met

# check: intrinsic clearance, rat liver microsomes < 500 mL/min/kg for `CC(=O)Nc1ccc(S(=O)(=O)NC2=NCN(Cc3ccccc3)CN2)cc1`
Criterion met

Is 500 mL/min/kg strictly greater than the molecule's reported intrinsic clearance, rat liver microsomes? molecule: `CC(=O)NC[C@H]1C[C@]2(C)[C@@H](CCCC[C@]2(C)O)N1CC1(O)CCOCC1`
Criterion met

# check: intrinsic clearance, rat liver microsomes < 500 mL/min/kg for `Cc1nc2ccc(NC(=O)c3sc(-c4ccccn4)nc3C)cc2s1`
Criterion met
